Recorded IC50 values for a group of molecules are listed next.
Assay system: UniProtKB P42336
Sequence (P42336 whole entry): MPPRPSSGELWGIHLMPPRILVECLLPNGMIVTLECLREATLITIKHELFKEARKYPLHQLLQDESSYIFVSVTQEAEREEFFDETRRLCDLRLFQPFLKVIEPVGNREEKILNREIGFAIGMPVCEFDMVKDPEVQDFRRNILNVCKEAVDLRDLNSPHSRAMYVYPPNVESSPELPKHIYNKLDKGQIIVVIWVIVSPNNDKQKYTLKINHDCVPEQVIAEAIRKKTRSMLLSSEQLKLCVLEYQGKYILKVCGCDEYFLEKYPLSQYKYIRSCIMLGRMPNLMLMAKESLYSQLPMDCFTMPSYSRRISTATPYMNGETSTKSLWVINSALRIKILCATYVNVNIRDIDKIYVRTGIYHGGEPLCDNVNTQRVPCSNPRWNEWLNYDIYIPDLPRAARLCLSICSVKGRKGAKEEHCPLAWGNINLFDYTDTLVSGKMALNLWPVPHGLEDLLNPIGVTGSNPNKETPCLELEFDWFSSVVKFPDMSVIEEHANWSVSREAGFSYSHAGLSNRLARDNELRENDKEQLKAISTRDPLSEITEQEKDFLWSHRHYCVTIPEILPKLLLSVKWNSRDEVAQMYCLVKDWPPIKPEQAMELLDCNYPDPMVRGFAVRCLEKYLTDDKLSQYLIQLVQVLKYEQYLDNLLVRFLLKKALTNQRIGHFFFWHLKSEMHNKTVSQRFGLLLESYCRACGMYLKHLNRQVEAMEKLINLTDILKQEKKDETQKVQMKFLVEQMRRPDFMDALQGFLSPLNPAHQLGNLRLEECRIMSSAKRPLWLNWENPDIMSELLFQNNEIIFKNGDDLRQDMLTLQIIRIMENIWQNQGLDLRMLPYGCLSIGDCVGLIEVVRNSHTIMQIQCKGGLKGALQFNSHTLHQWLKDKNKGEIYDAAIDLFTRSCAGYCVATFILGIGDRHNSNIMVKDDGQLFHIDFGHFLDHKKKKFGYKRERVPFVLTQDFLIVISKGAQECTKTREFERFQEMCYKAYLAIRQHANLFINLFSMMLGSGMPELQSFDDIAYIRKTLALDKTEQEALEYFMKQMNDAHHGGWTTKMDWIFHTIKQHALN
Sequence (P27986 whole entry partner): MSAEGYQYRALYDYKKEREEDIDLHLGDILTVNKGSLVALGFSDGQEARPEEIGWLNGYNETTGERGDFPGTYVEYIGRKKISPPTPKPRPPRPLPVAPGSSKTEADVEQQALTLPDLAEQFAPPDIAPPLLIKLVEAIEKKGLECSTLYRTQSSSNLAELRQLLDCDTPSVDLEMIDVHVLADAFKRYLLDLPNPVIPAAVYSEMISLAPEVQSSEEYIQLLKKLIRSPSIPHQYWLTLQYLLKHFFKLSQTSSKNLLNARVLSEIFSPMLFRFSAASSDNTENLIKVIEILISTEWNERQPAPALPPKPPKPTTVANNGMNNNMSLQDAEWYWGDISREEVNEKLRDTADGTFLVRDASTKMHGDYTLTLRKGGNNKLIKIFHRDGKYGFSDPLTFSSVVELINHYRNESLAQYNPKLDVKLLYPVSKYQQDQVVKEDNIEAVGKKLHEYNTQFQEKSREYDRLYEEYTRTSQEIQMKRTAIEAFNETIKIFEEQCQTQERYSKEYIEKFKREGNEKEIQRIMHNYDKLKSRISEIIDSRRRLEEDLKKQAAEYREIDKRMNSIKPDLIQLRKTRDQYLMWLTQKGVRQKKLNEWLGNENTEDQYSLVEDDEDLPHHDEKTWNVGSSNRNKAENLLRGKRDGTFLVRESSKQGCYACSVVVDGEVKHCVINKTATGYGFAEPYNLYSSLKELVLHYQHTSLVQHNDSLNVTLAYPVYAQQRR

Below are worked cases with known answers.
Molecule	IC50
O[C@@H](c1ccc(Cl)cc1)c1cc(-c2ccncc2)sc1-c1nnc[nH]1 [Compound 84]	> 1000 nM
Clc1ccc(Cc2nc(-c3ccncc3)sc2-c2cnc[nH]2)cc1 [Compound 66]	> 1000 nM
Cc1nn2ccc(CNC(=N)N)cc2c1-c1nc(Cc2ccc(Cl)cc2)c(-c2nnc[nH]2)s1 [Compound 35]	100 to 1000 nM
OC(c1ccc(Cl)cc1)c1cc(-c2ccnc3sccc23)sc1-c1nnc[nH]1 (centres unmarked) [Compound 57]	100 to 1000 nM

Look up IC50 with UniProtKB P42336 for this molecule: O=C1CCc2c(-c3cc(C(O)c4ccc(Cl)cc4)c(-c4nnc[nH]4)s3)ccnc2N1 (centres unmarked) [Compound 64]
100 to 1000 nM
